# TARGET_OF_ASSAY: Dual specificity protein phosphatase 6 (Rattus norvegicus)
# ASSAY_COMMENT: MKP-3 phosphatase inhibitors, primary screen, biochemical, rat enzyme, in vitro (AID 425);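 note: plate controls were vehicle for no effect and reference inhibitor for full effect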
# CONDITION_NOTES: recombinant MKP-3 phosphatase activity, fluorescence; at 20 µM; hits give high values
Hit rate of the full screen: of about 110,000 compounds, about 190 (0.17%) were called active. What follows is part of a selection rich in actives, with near analogues and random picks from the rest. Results with a measured potency or affinity are listed apart.
ENDPOINT_LABEL: inhibition (%)
Use % as the unit, but write only the number.

# count of solved cases: 5
COMPOUND: Cc1cc(Cl)ccc1OCCCC(=O)NC1CCN(C)CC1
inhibition (%): -4.9

COMPOUND: O=C1NC(=S)N(c2ccccc2F)C(=O)/C1=C/c1ccc(I)o1
inhibition (%): 91.2

COMPOUND: Cc1cc2nc3s/c(=C/c4ccc(-c5ccc(Cl)cc5)o4)c(=O)n3c2cc1C
inhibition (%): 0.8

COMPOUND: CC(C)=C1C2CCC1C(C(=O)NCCC1=CCCCC1)C2C(=O)O (centres undefined)
inhibition (%): 1.3

COMPOUND: COc1ccc(NC(=O)/C(=C\c2ccco2)NC(=O)c2ccco2)cc1
inhibition (%): 4.4

Reported inhibition ( O=C1NC(=S)N(c2ccccc2F)C(=O)/C1=C/c1ccc(OCc2cccc(C(=O)O)c2)cc1 ) = 68.5

inhibition for CCC(C(=O)NC1CCCC1)N(C(=O)Cn1nnc(-c2ccc(C)o2)n1)C(C)(C)C (centres undefined) is -14.3

Lookup result for c1ccc(-c2noc(C34CC5CC(CC(C5)C3)C4)n2)nc1 ; measured inhibition: -5.1

Per the record, O=C(NCCN1CCOCC1)c1cnn2c(C(F)(F)F)cc(-c3ccc(Br)cc3)nc12 has inhibition of -0.4

For record CC(=O)Nc1ccc(S(=O)(=O)NCC(C)NS(=O)(=O)c2ccc(NC(C)=O)cc2)cc1 (centres undefined) the listed inhibition is -11.4

Note to self: inhibition recorded for Cc1cc(Br)cc(C)c1NC(=O)c1ccc2c(c1)OCCO2 was 82.6
